Known Kd of a selection of binders
Molecular target: T1, EsCas13d, nuclease-dead (Eubacterium siraeum, UniProt B0MS50, R295A;H300A;R849A;H854A)
T1 sequence: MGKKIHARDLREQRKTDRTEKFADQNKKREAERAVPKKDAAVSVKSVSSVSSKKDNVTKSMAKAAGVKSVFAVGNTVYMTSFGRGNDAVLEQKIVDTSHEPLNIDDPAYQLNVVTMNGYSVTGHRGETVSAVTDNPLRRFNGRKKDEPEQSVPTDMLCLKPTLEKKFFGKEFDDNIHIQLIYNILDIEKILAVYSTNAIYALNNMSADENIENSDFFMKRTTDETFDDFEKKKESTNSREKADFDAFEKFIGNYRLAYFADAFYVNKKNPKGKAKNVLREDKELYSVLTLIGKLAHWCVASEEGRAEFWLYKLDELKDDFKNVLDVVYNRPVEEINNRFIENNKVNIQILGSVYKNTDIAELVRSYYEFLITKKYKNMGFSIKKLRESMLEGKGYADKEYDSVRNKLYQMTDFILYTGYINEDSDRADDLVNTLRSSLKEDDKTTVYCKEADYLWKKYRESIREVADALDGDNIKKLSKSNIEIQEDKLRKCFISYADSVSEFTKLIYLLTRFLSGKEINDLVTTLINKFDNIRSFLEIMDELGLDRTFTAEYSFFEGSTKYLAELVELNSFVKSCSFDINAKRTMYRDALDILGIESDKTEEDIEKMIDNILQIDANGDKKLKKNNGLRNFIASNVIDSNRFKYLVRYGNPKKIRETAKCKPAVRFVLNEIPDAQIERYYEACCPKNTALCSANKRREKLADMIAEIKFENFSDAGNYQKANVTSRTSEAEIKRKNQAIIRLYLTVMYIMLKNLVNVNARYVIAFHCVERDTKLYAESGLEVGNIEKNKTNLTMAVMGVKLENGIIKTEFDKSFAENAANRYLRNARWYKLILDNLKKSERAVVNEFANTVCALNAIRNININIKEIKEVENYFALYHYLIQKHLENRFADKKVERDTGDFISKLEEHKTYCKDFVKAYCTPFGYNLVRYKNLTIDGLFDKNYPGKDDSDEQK
Experiment: crRNA (strand 1, pre-loaded); Mg2+; 40 mM Tris-HCl pH 7.5, 150 mM NaCl, 6 mM MgCl2, 1 mM DTT, 0.1% Tween-20, 0.2 mg/ml BSA; 25 C; 10 min per concentration, then washed
Conditions: tags: His6-TwinStrep-SUMO cleaved; N-terminal SNAP kept (SNAP-Surface 488); label: 3' end held by stalled T7 RNA polymerase

binder	Kd [nM]
target 2 MT 5'PFS AUU 3'PFS CUG (mixed) RNA 1: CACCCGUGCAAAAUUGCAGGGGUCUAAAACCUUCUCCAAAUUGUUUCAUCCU RNA 2: GGGAAUGGAUCCACAUCUACGAAUUCAUUAGGAUGAAACAAUUUGGAGAAGCUGAGAUCGGAAGAGCACACGU	9.7
target 2 MT 5'PFS ACC 3'PFS AAC (mixed) RNA 1: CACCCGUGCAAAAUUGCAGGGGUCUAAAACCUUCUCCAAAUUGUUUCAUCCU RNA 2: GGGAAUGGAUCCACAUCUACGAAUUCACCAGGAUGAAACAAUUUGGAGAAGAACAGAUCGGAAGAGCACACGU	10.5
target 1 insC 3' of 22,insG 3' of 7 (mixed) RNA 1: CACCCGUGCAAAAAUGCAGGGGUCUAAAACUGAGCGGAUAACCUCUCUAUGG RNA 2: GGGAAUGGAUCCACAUCUACGAAUUCGUACCCAUAGAGAGGUUAUCGCGCUCACCGAGAUCGGAAGAGCACACGU	16.2
target 1 MT 5'PFS CAA 3'PFS AUA (mixed) RNA 1: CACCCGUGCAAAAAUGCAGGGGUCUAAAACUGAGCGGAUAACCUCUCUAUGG RNA 2: GGGAAUGGAUCCACAUCUACGAAUUCCAACCAUAGAGAGGUUAUCCGCUCAAUAAGAUCGGAAGAGCACACGU	17.5
